METHOD: Half life in C57BL/6J mouse at 20 mg/kg, po measured upto 24 hrs by LC-MS analysis
Type: ADME, organism-based
SETTINGS: in vivo
PROPERTY: half-life

Ask | Give recorded half-life. `O=C(O)c1cccc(NC(=O)N2CCC(OCc3c(-c4ccccc4OC(F)(F)F)noc3C3CC3)CC2)c1`
Reply | 10.6 h

====

METHOD: Tmax in C57BL/6J mouse at 20 mg/kg, po measured upto 24 hrs by LC-MS analysis
Assay type: ADME, organism-based
SETTINGS: in vivo
PROPERTY: Tmax (h)
Numbers only, in h.

Ask | Tell us which Tmax value is on record for `O=C(O)c1cccc(NC(=O)N2CCC(OCc3c(-c4ccccc4OC(F)(F)F)noc3C3CC3)CC2)c1`
Reply | 4.8
